System: C6 cells
assay-info: C6 SRB growth assay
Format: cell-based, rat
condition-details: Rattus norvegicus, C6; PDGF-R expression ++; read-out: SRB
assay-endpoint: pIC50
The meaning of pIC50 here: minus log10 of the concentration in molar units.

Record `Cc1oncc1C(=O)Nc1ccc(C(F)(F)F)cc1` : what is its pIC50 with C6 cells? 6.52

----------
Test system: PDGFR
assay-info: Receptor tyrosine kinase inhibition, PDGFR
Type: cell-based
condition-details: read-out: PDGFR IC50 (W); W = done in Western assay
assay-endpoint: IC50 (µM)
Entry rule: numbers only, all in µM.

Recorded IC50 of `O=[N+]([O-])c1ccc2ncc(-c3ccccc3)nc2c1` , please. 25
